Test system: MG-II patient tumor tissue (WHO grade II meningioma)
Assay: Drug screening of uncultured patient tumor tissue MG-II on OBSCs
Format: cell-based
Settings: Homo sapiens, dose required to kill 50% of the tumor
property label: EC50

INPUT: Return EC50 for the following compound: Cn1nnc2c(C(N)=O)ncn2c1=O [Temozolomide]
OUTPUT: > 100 µM

----------
Tested on: LN229 (established GBM line)
Assay: Drug screening of LN229 tumor foci on OBSCs
Assay type: cell-based, human
Details: Homo sapiens, LN-229, dosed day 1, survival via bioluminescence day 4, linear interpolation
Listed molecules paired with reported pIC50
Formally, pIC50 is defined as -log10 of the concentration c, with c in mol/L.

Sample answers from the record:
# line notation, pIC50
data = [
    ("Nc1ncn([C@@H]2O[C@H](CO)[C@@H](O)[C@H]2O)c(=O)n1", 3.40),
    ("CC(=O)Nc1cccc(-n2c(=O)n(C3CC3)c(=O)c3c(Nc4ccc(I)cc4F)n(C)c(=O)c(C)c32)c1", 4.72),
]

INPUT: Indicate its recorded pIC50; the molecule in question is O=NN(CCCl)C(=O)NC1CCCCC1
OUTPUT: 3.02

----------
Test system: LBM patient tumor tissue (Stage III NSCLC adenocarcinoma)
Assay: Drug screening of uncultured patient tumor tissue LBM on OBSCs
Assay type: cell-based
Settings: Homo sapiens, dose required to kill 50% of the tumor
pEC50: −log10 of the molar value.
property label: pEC50

INPUT: Give the measured pEC50 for Cn1nnc2c(C(N)=O)ncn2c1=O [Temozolomide]
OUTPUT: < 4.00

----------
Test system: GBM8 (high-passage patient-derived GBM line)
Assay: Drug screening of GBM8 tumor foci on OBSCs
Format: cell-based, human
Settings: Homo sapiens
Hi! Could you tag entries with EC90 below 9 µM as MET, and those at or above as NOT MET? Much appreciated.

INPUT: Would you kindly verify if EC90 of Nc1ccn([C@@H]2O[C@H](CO)[C@@H](O)C2(F)F)c(=O)n1 is strictly less than 9 µM?
OUTPUT: MET

----------
Recorded pIC50 for the following molecules
Test system: MB231Br (breast cancer metastasis to brain)
Assay: Drug screening of MB231Br tumor foci on OBSCs
Format: cell-based, human
Details: Homo sapiens; MB231Br on OBSCs; dosed day 1, survival via bioluminescence day 4; linear interpolation
Scale explanation: pIC50 corresponds to minus log10 of a concentration expressed in moles per litre.

# molecule, system name, experimental value
records = [
    ("CC(=O)Nc1cccc(-n2c(=O)n(C3CC3)c(=O)c3c(Nc4ccc(I)cc4F)n(C)c(=O)c(C)c32)c1 [Trametinib]", "MB231Br (breast cancer metastasis to brain)", 6.11),
]

Turning now to a further molecule:
INPUT: Give the value of pIC50 reported for the following: COc1cc([C@@H]2c3cc4c(cc3[C@@H](O[C@@H]3O[C@@H]5CO[C@@H](C)O[C@H]5[C@H](O)[C@H]3O)[C@H]3COC(=O)[C@H]23)OCO4)cc(OC)c1O [Etoposide]
OUTPUT: 4.00

----------
Items are presented alongside their recorded EC50.
Test system: PDIPG (low-passage pediatric patient-derived line)
Assay: Drug screening of PDIPG tumor foci on OBSCs
Type: cell-based, human
Details: PDIPG on OBSCs; dose required to kill 50% of the tumor; read-out: EC50
Report as a plain number; the unit µM is understood.

# compound, property label, experimental value
measured = [
    ("N.N.[Cl][Pt][Cl] [Cisplatin]", "EC50", 16.8),
]

Alright, here's another compound for you.
INPUT: GET EC50 where system = PDIPG (low-passage pediatric patient-derived line) and item = N.N.O=C([O-])C1(C(=O)[O-])CCC1.[Pt+2] [Carboplatin]
OUTPUT: 86.1

Reference source: paper PMC10313921
